# Tested on: HCMV AD169
# TEST_NAME: HCMV AD169 plaque reduction assay in HFF cells
# Format: cell-based
# CONDITION_DESCRIPTION: read-out: HCMV, 50% effective concentration, EC50
ENDPOINT_LABEL: pEC50
Keep in mind that pEC50 stands for -log10 of concentration in molar terms.

[ask] I'd like to know its pEC50. The compound in question is `CCCCCCCCCCCCCCCCCCOCCOP(=O)(O)OP(=O)(O)CO[C@H](CO)Cn1ccc(N)nc1=O`
[reply] 8.40

----------
# System: MCMV
# TEST_NAME: MCMV plaque reduction assay in HFF cells
# Format: cell-based
# CONDITION_DESCRIPTION: read-out: MCMV, 50% effective concentration, EC50
The following molecules are listed with their measured EC50 values.
Respond with the bare value in nM.

                                   molecule  readout_unit  endpoint_result
0  Nc1ccn(C[C@@H](CO)OCP(=O)(O)O)c(=O)n1 [HPMPC, reference compound]            nM               40

// below: EC50 requested for another molecule
[ask] I am curious: what EC50 value has been reported for `CCCCCCCCCCCCCCCCCCOCCOP(=O)(O)OP(=O)(O)CO[C@H](CO)Cn1ccc(N)nc1=O` ?
[reply] 30
